Source listed as patent US20180355061A1.

target: T1, human PD-1 (soluble analyte in SPR) (human, UniProt Q15116 25-170, limits assumed); assay: SPR (ProteOn XPR36), mAb from crude supernatant captured on anti-human IgG Fc, PD-1 as analyte, 25 C
T1 construct: also called CD279; PDCD1
T1 sequence (Q15116 25-170 limits assumed): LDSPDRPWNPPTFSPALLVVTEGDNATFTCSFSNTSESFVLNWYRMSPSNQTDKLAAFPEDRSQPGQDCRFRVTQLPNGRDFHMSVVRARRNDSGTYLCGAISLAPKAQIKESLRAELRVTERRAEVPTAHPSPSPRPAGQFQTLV
koff below 0.008 s⁻¹ gives 0 (no); koff at or above it gives 1 (yes).

Recorded results for 4 binders are shown here.
BINDER	GROUP LABEL
PD1B845 (antibody, human IgG1, kappa, V domains shown, G56A variant of PD1B750, IgG1; tested as crude supernatant in SPR; also called VH PD1H399; VL PD1L470) VH: QVQLVQSGAEVKKPGASVKVSCKASGYTFTTYWMHWVRQAPGQGLEWMGEINPNNAGINYAQKFQGRVTLTVDKSISTAYMELSRLRSDDTAVYYCTIDYYDYGGYWGQGTLVTVSS VL: DIQMTQSPSSLSASVGDRVTITCKASQNVGTNVAWYQQKPEKAPKSLIYSASYRYSGVPSRFSGSGSGTDFTLTISSLQPEDFATYYCQQYNIYPYTFGQGTKLEIKR	1 (yes)
PD1B850 (antibody, human IgG1, kappa, V domains shown, G56I variant of PD1B750, IgG1; tested as crude supernatant in SPR; also called VH PD1H404; VL PD1L470) VH: QVQLVQSGAEVKKPGASVKVSCKASGYTFTTYWMHWVRQAPGQGLEWMGEINPNNIGINYAQKFQGRVTLTVDKSISTAYMELSRLRSDDTAVYYCTIDYYDYGGYWGQGTLVTVSS VL: DIQMTQSPSSLSASVGDRVTITCKASQNVGTNVAWYQQKPEKAPKSLIYSASYRYSGVPSRFSGSGSGTDFTLTISSLQPEDFATYYCQQYNIYPYTFGQGTKLEIKR	0 (no)
PD1B848 (antibody, human IgG1, kappa, V domains shown, N55K variant of PD1B750, IgG1; tested as crude supernatant in SPR; also called VH PD1H402; VL PD1L470) VH: QVQLVQSGAEVKKPGASVKVSCKASGYTFTTYWMHWVRQAPGQGLEWMGEINPNKGGINYAQKFQGRVTLTVDKSISTAYMELSRLRSDDTAVYYCTIDYYDYGGYWGQGTLVTVSS VL: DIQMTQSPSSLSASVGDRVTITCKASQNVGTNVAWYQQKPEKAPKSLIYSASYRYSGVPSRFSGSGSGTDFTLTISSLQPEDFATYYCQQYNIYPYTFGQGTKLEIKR	1 (yes)
PD1B846 (antibody, human IgG1, kappa, V domains shown, N55D, G56A variant of PD1B750, IgG1; tested as crude supernatant in SPR; also called VH PD1H400; VL PD1L470) VH: QVQLVQSGAEVKKPGASVKVSCKASGYTFTTYWMHWVRQAPGQGLEWMGEINPNDAGINYAQKFQGRVTLTVDKSISTAYMELSRLRSDDTAVYYCTIDYYDYGGYWGQGTLVTVSS VL: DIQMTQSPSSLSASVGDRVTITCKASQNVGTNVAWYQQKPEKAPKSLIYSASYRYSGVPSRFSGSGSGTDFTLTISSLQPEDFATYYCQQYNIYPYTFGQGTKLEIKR	0 (no)

Query binder follows.
Query: Has PD1B847 (antibody, human IgG1, kappa, V domains shown, N55Q variant of PD1B750, IgG1; tested as crude supernatant in SPR; also called VH PD1H401; VL PD1L470) VH: QVQLVQSGAEVKKPGASVKVSCKASGYTFTTYWMHWVRQAPGQGLEWMGEINPNQGGINYAQKFQGRVTLTVDKSISTAYMELSRLRSDDTAVYYCTIDYYDYGGYWGQGTLVTVSS VL: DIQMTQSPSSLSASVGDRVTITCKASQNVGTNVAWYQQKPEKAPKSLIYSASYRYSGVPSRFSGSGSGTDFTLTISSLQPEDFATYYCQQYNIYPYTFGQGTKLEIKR a recorded koff greater than or equal to 0.008 s⁻¹?
Reply: 0 (no)
